# target: DA transporter (Rattus norvegicus)
# Construct: Striata were dissected using glass manipulators; from tissue; host or cells: striatum of male Sprague-Dawley rats, membranes
# Sequence (P23977 whole entry): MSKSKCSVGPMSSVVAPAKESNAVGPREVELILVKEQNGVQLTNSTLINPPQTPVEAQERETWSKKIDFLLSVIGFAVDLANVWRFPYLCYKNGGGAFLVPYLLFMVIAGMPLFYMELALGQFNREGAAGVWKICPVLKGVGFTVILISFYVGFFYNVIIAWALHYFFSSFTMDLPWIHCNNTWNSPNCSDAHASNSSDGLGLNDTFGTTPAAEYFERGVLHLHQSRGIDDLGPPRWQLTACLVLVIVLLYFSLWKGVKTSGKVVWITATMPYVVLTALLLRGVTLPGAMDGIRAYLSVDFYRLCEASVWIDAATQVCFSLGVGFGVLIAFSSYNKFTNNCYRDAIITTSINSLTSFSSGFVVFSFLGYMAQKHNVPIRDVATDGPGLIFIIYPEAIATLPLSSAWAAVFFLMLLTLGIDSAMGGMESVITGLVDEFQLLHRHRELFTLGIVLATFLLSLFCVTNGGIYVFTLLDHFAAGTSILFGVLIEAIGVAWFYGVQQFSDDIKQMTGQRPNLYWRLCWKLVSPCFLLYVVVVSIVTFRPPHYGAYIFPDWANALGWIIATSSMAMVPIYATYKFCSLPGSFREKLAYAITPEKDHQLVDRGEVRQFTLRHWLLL
# measurement.protocol: [^3 H]CFT binding to DA transporter
# applied.conditions: Table 2; nM ± SD; rat striatum; read-out: [^3 H]CFT Binding IC50
IC50 listing for selected compounds.

compound	value.unit	qual	IC50
CN1[C@H](Cc2ccccc2)C[C@H]2Cc3ccccc3[C@H]21 (relative stereo) [RTI-4793-14]	nM	=	850
C[C@]12N[C@H](Cc3ccccc31)c1ccccc12 [(+)-MK801]	nM	>	15000

---

# target: NE transporter (Rattus norvegicus, UniProt Q63380)
# Construct: from tissue; host or cells: brain membranes prepared by a cited method
# Sequence (Q63380 1-617): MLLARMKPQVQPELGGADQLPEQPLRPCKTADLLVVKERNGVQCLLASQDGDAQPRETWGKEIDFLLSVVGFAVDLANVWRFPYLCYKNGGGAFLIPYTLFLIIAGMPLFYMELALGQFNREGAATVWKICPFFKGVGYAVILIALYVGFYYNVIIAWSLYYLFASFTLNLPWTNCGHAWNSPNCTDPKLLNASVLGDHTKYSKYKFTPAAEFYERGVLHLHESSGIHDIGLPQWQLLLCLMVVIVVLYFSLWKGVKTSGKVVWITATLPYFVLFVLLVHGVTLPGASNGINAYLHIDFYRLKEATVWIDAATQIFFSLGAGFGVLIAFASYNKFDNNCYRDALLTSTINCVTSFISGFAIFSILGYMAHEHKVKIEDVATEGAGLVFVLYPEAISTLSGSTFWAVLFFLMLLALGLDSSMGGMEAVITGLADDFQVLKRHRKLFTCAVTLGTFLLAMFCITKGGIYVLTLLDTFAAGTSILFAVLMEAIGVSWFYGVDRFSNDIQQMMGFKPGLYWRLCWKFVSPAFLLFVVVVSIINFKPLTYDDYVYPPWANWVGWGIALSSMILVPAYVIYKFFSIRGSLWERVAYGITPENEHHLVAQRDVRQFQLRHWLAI
# measurement.protocol: [^3 H]Nisoxetine binding to NE transporter
pIC50: −log10 of the molar value.
readout.label: pIC50

molecule	target	reported
c1ccc(C2(N3CCCCC3)CCCCC2)cc1 [PCP, phencyclidine]	NE transporter (Rattus norvegicus, UniProt Q63380)	4.78

---

# Test system: [^3 H]DA uptake
# measurement.protocol: Synaptosomal [^3 H]DA uptake inhibition
# Format: biochemical, rat
# applied.conditions: Table 2; nM ± SD; rat striatum synaptosomes
readout.label: IC50 (nM)

compound	qual	reported
CN1[C@H](Cc2ccccc2)C[C@H]2Cc3ccccc3[C@H]21 (relative stereo) [RTI-4793-14]	=	547
CNC1CC(c2ccc(Cl)c(Cl)c2)c2ccccc21 (stereo not shown) [Indatraline]	=	3.23
C[C@]12N[C@H](Cc3ccccc31)c1ccccc12 [(+)-MK801]	>	10000
c1ccc(C2(N3CCCCC3)CCCCC2)cc1 [PCP, phencyclidine]	=	347
